Molecular target: human protease activated receptor 1 (PAR-1) (Homo sapiens (Human), UniProt P25116)
Sequence (P25116 22-425): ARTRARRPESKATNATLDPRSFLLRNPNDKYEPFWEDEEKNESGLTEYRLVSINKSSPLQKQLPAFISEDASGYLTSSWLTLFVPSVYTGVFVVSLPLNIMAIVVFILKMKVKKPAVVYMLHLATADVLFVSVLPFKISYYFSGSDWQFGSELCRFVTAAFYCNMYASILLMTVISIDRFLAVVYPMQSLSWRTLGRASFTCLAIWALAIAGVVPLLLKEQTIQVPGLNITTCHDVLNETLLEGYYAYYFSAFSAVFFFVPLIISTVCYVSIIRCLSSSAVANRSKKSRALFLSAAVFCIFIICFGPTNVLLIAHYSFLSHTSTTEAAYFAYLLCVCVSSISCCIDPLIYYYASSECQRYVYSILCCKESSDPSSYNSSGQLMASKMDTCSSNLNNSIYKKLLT
Test: Cellular, functional in vitro test (aequorin luminescence, calcium release in recombinant HEK293 PAR-1 test cell)
Conditions: HEK293-derived PAR-1 test cell line expressing aequorin; PAR-1 agonist added at its EC50, 5 min after test substance
pIC50: −log10 of the molar value.
MEASUREMENT TYPE: pIC50

Here's what some known entries look like.
CCc1ccc(C2CC(NC(=O)N(C)c3ccccc3)CN(C(=O)C3CCCC3)C2)cc1 (racemic)    6.63
CCc1ccc(C2CC(NS(=O)(=O)Cc3ccccc3)CN(C(=O)C3CCCC3)C2)cc1 (racemic)    6.61
O=C(NC1CC(c2ccc(C(F)(F)F)cc2)CN(C(=O)N2CCC(O)CC2)C1)C1CCCC1 (racemic) [Example 170]    7.67
CCc1ccc(C2CC(NC(=O)Nc3ccccc3)CN(C(=O)N3CCCC3)C2)cc1 (racemic)    7.76
CCc1ccc(C2CC(C(=O)Nc3ccccc3)CN(C(=O)C3(CC)COC3)C2)cc1 (racemic)    6.32
CCc1ccc(C2CC(C(=O)Nc3ccccc3)CN(C(=O)C(C)(C)CF)C2)cc1 (racemic)    7.54
N#CC1CCN(C(=O)N2CC(NC(=O)C3CCCC3)CC(c3ccc(C(F)(F)F)cc3)C2)CC1 (single isomer, unassigned)    7.20
CCc1ccc(C2CC(C(=O)Nc3ccccc3)CN(C(=O)CCOC)C2)cc1 (racemic)    6.96
O=C(NC1CC(c2ccc(C(F)(F)F)cc2)CN(C(=O)N2CCC(O)CC2)C1)C1CCCC1 (single isomer, unassigned) [Example 177]    7.09
CCc1ccc(C2CC(NC(=O)c3ccc(-c4cccc(C(F)(F)F)c4)cn3)CN(C(=O)C3CCCC3)C2)cc1 (racemic)    7.71

a: Cc1cccc(C(=O)NC2CC(c3ccc(C(F)(F)F)cc3)CN(C(=O)N3CCOCC3)C2)n1 (racemic)
b: CCc1ccc(C2CC(NC(=O)OC)CN(C(=O)N3CCOCC3)C2)cc1 (racemic)
c: C[C@@H]1CC[C@@H](C)N1C(=O)N1CC(NC(=O)c2ccccc2)CC(c2ccc(C(F)(F)F)cc2)C1 (mixture of isomers)
d: O=C1CN(C(=O)N2CC(NC(=O)c3ccccc3)CC(c3ccc(C(F)(F)F)cc3)C2)CCN1 (racemic)
Q. Exam item: list the entries in increasing order of pIC50. Output spec: a listing of the labels in the requested order.
A. b, d, a, c

* * *

Molecular target: human protease activated receptor 1 (PAR-1) (Homo sapiens (Human))
Assay: Cellular, functional in vitro test (aequorin luminescence, calcium release in recombinant HEK293 PAR-1 test cell)
Conditions: HEK293-derived PAR-1 test cell line expressing aequorin; PAR-1 agonist added at its EC50, 5 min after test substance
pIC50: −log10 of the molar value. Counter-ions that a name gives are not always drawn.
MEASUREMENT TYPE: pIC50

Here's what some known entries look like.
O=C(NC1CC(c2ccc(C(F)(F)F)cc2)CN(C(=O)N2CCS(=O)(=O)CC2)C1)c1ccccc1 (racemic)    7.81
O=C(NC1CC(c2ccc(OC(F)(F)F)cc2)CN(C(=O)c2ccncc2)C1)c1ccccc1 (single isomer, unassigned)    7.95

a: Cc1ccc(C2CC(NC(=O)c3ccccc3)CN(C(=O)C3(N)CCC3)C2)cc1C (racemic) [Example 119, hydrochloride]
b: CCc1ccc(C2CC(C(=O)Nc3ccccc3)CN(C(=O)c3scnc3C)C2)cc1 (racemic)
Q. When a and b are compared, which has the higher number for pIC50? Record your answer as the label of the chosen record.
A. a
